Would you kindly list IC50 for each of these compounds?
Biological target: human BACE1 (Homo sapiens)
Sequence (P56817 46-501): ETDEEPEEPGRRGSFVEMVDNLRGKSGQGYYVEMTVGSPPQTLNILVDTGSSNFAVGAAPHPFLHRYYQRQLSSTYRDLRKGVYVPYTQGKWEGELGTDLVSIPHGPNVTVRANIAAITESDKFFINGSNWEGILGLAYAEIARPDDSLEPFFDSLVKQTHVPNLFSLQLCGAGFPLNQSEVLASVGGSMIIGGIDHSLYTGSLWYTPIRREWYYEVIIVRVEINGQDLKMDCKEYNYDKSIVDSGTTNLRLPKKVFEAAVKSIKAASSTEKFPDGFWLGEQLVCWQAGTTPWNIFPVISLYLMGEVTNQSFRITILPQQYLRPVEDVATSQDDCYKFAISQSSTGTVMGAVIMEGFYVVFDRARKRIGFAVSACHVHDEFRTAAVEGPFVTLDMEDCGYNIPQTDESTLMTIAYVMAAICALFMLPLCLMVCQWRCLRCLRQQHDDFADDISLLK
Test: BACE-1 fluorescent kinetic assay (Example 88)
Assay type: biochemical
Conditions: 10 nM enzyme, 25 μM substrate WABC-6, Na-Acetate pH 4.5, room temperature; read-out: BACE1 (IC50 μM)

Solved cases below.
>>> print(df.to_string())
                                   compound                study_system  quantity_measured        result
0  CN1C(=O)C(c2cccc(-c3cccnc3F)c2)(C2CCN(C(=O)c3ccccc3)CC2)N=C1N (stereo not drawn)  human BACE1 (Homo sapiens)               IC50  0.01 to 1 µM
1  CN1C(=O)C(c2cccc(-c3cc(F)ccc3F)c2)(C2CCN(C(=O)c3ccccc3)CC2)N=C1N (stereo not drawn)  human BACE1 (Homo sapiens)               IC50  0.01 to 1 µM

Now, please, on to the next compound.
What does the record list as IC50 for CN1C(=O)C(c2cccc(C3CCCCC3)c2)(C2CCN(C(=O)c3ccccc3)CC2)N=C1N (stereo not drawn) ? 0.01 to 1 µM
